These measurements were taken from patent US10543212B2.

Could you please report measured IC50 for the items listed next?
target: Full-length, GST-tagged, human CaMKIIδ (Homo sapiens, UniProt Q13557); construct: Full-Length, Glutathione-S-Transferase(GST)-Tagged, Human CaMKIIδ was purchased from Carna Biosciences; purchased Carna Biosciences 02-111; assay: CaMKIIδ binding assay (TR-FRET with BODIPY-labeled probe ligand); settings: Table 2; activity class for CaMKIIδ
Sequence (Q13557 1-478 isoform Q13557-12): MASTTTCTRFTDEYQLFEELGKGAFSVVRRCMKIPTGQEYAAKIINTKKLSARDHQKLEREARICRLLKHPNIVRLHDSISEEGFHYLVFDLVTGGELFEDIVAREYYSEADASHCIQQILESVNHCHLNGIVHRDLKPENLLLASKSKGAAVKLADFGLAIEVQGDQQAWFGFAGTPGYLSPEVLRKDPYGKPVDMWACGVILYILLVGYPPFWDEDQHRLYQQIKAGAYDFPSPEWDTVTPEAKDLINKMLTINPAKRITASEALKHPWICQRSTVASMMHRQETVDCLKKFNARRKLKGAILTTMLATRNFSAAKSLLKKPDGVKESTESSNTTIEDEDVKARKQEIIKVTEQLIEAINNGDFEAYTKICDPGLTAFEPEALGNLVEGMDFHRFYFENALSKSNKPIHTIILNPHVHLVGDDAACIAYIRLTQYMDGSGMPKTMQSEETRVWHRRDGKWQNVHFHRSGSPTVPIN

QUERY: Look at this compound and give its reported IC50. COc1nc(N2CCNCC2)ccc1Nc1ncc(-c2ccc(Cl)c(O[C@@H](C)Cn3cnnn3)c2)cn1
RESULT: < 0.01 µM

QUERY: Look at this compound and give its reported IC50. C[C@@H](Cn1cnnn1)Oc1cc(-c2cnc(Nc3cn([C@H]4CC[C@H](N5CCOCC5)CC4)nc3C(F)(F)F)nc2)ccc1Cl
RESULT: < 0.01 µM

QUERY: Look at this compound and give its reported IC50. C[C@@H](Cn1cnnn1)Oc1cc(-c2cnc(Nc3cn(C4CN(C5CCOCC5)C4)nc3C(F)(F)F)nc2)ccc1Cl
RESULT: < 0.01 µM

Okay, now this compound:
QUERY: Look at this compound and give its reported IC50. C[C@@H](Cn1cnnn1)Oc1cc(-c2cnc(Nc3cn(CC4CCCN4C4COC4)nc3C(F)(F)F)nc2)ccc1Cl (stereo partly shown)
RESULT: 0.01 to 0.1 µM

* * *

target: Full-length, GST-tagged, human CaMKIIδ (Homo sapiens); construct: Full-Length, Glutathione-S-Transferase(GST)-Tagged, Human CaMKIIδ was purchased from Carna Biosciences; purchased Carna Biosciences 02-111; assay: CaMKIIδ binding assay (TR-FRET with BODIPY-labeled probe ligand); details: Table 2; activity class for CaMKIIδ
property_label: IC50

QUERY: Look at this molecule and give its reported IC50. COc1cc(N2CCOC(CN(C)C)C2)ccc1Nc1ncc(-c2ccc(Cl)c(O[C@@H](C)Cn3cnnn3)c2)cn1 (stereo partly shown) [Example 615]
RESULT: < 10 nM

// for each molecule in input: emit IC50
1. COc1nc(N2CCCNCC2)ccc1Nc1ncc(-c2ccc(Cl)c(O[C@@H](C)Cn3cnnn3)c2)cn1
2. COc1nn(C2CCN(C(=O)OC(C)(C)C)CC2)cc1Nc1ncc(-c2ccc(Cl)c(O[C@@H](C)Cn3cnnn3)c2)cn1
3. COc1nc(N2CCCN(C(=O)OC(C)(C)C)CC2)ccc1Nc1ncc(-c2ccc(Cl)c(O[C@@H](C)Cn3cnnn3)c2)cn1
4. COc1nn(C2CCNCC2)cc1Nc1ncc(-c2ccc(Cl)c(O[C@@H](C)Cn3cnnn3)c2)cn1
5. C[C@@H](Cn1cnnn1)Oc1cc(-c2cnc(Nc3cn(CC4CCCO4)nc3C(F)(F)F)nc2)ccc1Cl (stereo partly shown)

RESULT:
1: < 10 nM; 2: 10 to 100 nM; 3: ≥ 100 nM; 4: < 10 nM; 5: 10 to 100 nM

// for each molecule in input: emit IC50
1. CCn1cc(Nc2ncc(-c3ccc(Cl)c(O[C@@H](C)Cn4cnnn4)c3)cn2)c(C(F)(F)F)n1
2. C[C@@H](Cn1cnnn1)Oc1cc(-c2cnc(Nc3cn(CCCO)nc3C(F)(F)F)nc2)ccc1Cl
3. C[C@@H](Cn1cnnn1)Oc1cc(-c2cnc(Nc3cn(C4CCCCNC4=O)nc3C(F)(F)F)nc2)ccc1Cl (stereo partly shown)
4. C[C@@H](Cn1cnnn1)Oc1cc(-c2cnc(Nc3cn(C4CCC(=O)CC4)nc3C(F)(F)F)nc2)ccc1Cl
5. COc1nc(N2CCN(C3CCOC3)CC2)ccc1Nc1ncc(-c2ccc(Cl)c(O[C@@H](C)Cn3cnnn3)c2)cn1 (stereo partly shown)
6. COc1nc(N2CCN(C3CC3)CC2)ccc1Nc1ncc(-c2ccc(Cl)c(O[C@@H](C)Cn3cnnn3)c2)cn1

RESULT:
1. 10 to 100 nM
2. 10 to 100 nM
3. < 10 nM
4. 10 to 100 nM
5. 10 to 100 nM
6. < 10 nM

// for each molecule in input: emit IC50
1. C[C@@H](Cn1cnnn1)Oc1cc(-c2cnc(Nc3cn(C4CCN(C5CCOCC5)CC4)nc3C(F)(F)F)nc2)ccc1Cl
2. COc1cc(N2CCNCC2)ncc1Nc1ncc(-c2ccc(Cl)c(O[C@@H](C)Cn3cnnn3)c2)cn1

RESULT:
< 10 nM
< 10 nM

// for each molecule in input: emit IC50
1. C[C@@H](Cn1cnnn1)Oc1cc(-c2cnc(Nc3cn(C4CCN(C5CCOCC5)CC4)nc3OC(F)F)nc2)ccc1Cl
2. CCn1cc(Nc2ncc(-c3ccc(Cl)c(O[C@@H](C)Cn4cnnn4)c3)cn2)c(N2CCCC2)n1
3. COc1ccc(C(=O)N2CCN(CC3CC3)CC2)cc1Nc1ncc(-c2ccc(Cl)c(O[C@@H](C)Cn3cnnn3)c2)cn1
4. C[C@@H](Cn1cnnn1)Oc1cc(-c2cnc(Nc3cn(C4CCNCC4)nc3OCC(F)(F)F)nc2)ccc1Cl
5. C[C@@H](Cn1cnnn1)Oc1cc(-c2cnc(Nc3cn([C@H]4CC[C@H](C(=O)O)CC4)nc3C(F)(F)F)nc2)ccc1Cl
6. COc1nc(N2CCN(C(=O)OC(C)(C)C)CC2)ccc1Nc1ncc(-c2ccc(Cl)c(O[C@@H](C)Cn3cnnn3)c2)cn1
7. CNC(=O)C1CN(c2ccc(OC)c(Nc3ncc(-c4ccc(Cl)c(O[C@@H](C)Cn5cnnn5)c4)cn3)c2)C1
8. C#CCn1cc(Nc2ncc(-c3ccc(Cl)c(O[C@@H](C)Cn4cnnn4)c3)cn2)c(C(F)(F)F)n1

RESULT:
< 10 nM
10 to 100 nM
< 10 nM
< 10 nM
10 to 100 nM
≥ 100 nM
< 10 nM
10 to 100 nM
